TEST_DETAILS: folding stability dG unfold from trypsin proteolysis; higher = more stable
ENDPOINT_LABEL: folding stability dG unfold (kcal/mol)
A number alone suffices; assume kcal/mol.

Example results:
ORDERED_RESIDUES: SAGGMRIRIVVPPEMSPEEIAELLKKLFPDYEIKVEVKTVKVKVKDEETGEEYEVEVLVVEIEIKEKSAGGS [r16_828_TrROS_Hall]
ENDPOINT_LABEL: folding stability dG unfold
TEST_VALUE: 3.61
//
ORDERED_RESIDUES: SAGGMTIEKEDGKYRITITINGKTYTFTIPKELENKTEEEIAAELAAELAEKFGLKEITEIKIEKVPSAGGS [r8_402_TrROS_Hall]
ENDPOINT_LABEL: folding stability dG unfold
TEST_VALUE: 2.38
//
ORDERED_RESIDUES: SAGGSAGGSAGGPRTIYIPVKVEPDPNGKWKIDIEEIAKNLPDVKITSITPNYIKITFPASAGGSAGGSAGG [r11_771_TrROS]
ENDPOINT_LABEL: folding stability dG unfold
TEST_VALUE: 0.398
//
ORDERED_RESIDUES: SAGGSAGGSAKPKVVLVEYDEKTGKFKIVFPDGKELEITGLTPEQIKELAKSLGADYVIIESAGGSAGGSAG [r3_78_TrMRF]
ENDPOINT_LABEL: folding stability dG unfold
TEST_VALUE: 3.38

Give its folding stability dG unfold value. Item: SKIKIEVDEETGVITVTVEVDNLSEEEILDKLKEELEKLGFEVEVKVVKIEEVNGKVVVTVEIKIKPEKLSA [r9_347_TrROS_Hall]
1.75

Quick one: folding stability dG unfold for SAKKKITVKIKIEYDKETGTLKVEVEITYPDGKKVKVEAEIDLKTGKITIKVYDKNGKLIAEIEIELPPSAG [r14_524_TrROS_Hall] ?
2.68

Given SAEVYEFGNAVVVVTTSPDGTVRVYVFNPETGEVTEIEIHPDTPGEYKVRPLGNGEVKEATVPVSDILPVSA [r9_1071_TrMRF] , state its recorded folding stability dG unfold.
0.851

###

TEST_DETAILS: folding stability dG unfold from chymotrypsin proteolysis; higher = more stable
ENDPOINT_LABEL: folding stability dG unfold (kcal/mol)
Quick note: give the figure in kcal/mol, leave out the unit.

ORDERED_RESIDUES: SAMTPEFFETIKEASREGDIAAVLEAAEAIKTEFPDTGLTVDVVIEPREDDRFVIEVRVDYPPNLEGLASAG [r14_690_TrMRF]
folding stability dG unfold / kcal/mol: -0.212

ORDERED_RESIDUES: SAGGSAGGSAGGMPPATTVVEKPETSLTLEKTPTTVTIHDKATGKTSTVPAAEVDPALLSAGGSAGGSAGGS [r10_512_JUSTAS]
folding stability dG unfold / kcal/mol: 0.297

ORDERED_RESIDUES: SAGGSAGGSAGGMKKPILLPGETEEDVLERIKKLPKDYKVTIEKLDDDKLLVTITSPKLGSAGGSAGGSAGG [r7_662_JUSTAS]
folding stability dG unfold / kcal/mol: -0.5

Next up:
Which folding stability dG unfold is reported for this sequence? SAGGSAGGSLTVSFPGITLTLETVPGTGKIIATVTFPGGEVRTISSDVPLSELPPVVREALELLSAGGSAGG [r6_749_JUSTAS]
2.67

###

Each entry below carries its recorded folding stability dG unfold.
TEST_DETAILS: folding stability dG unfold (combined trypsin and chymotrypsin); higher = more stable
Kindly answer with a numeric value in kcal/mol, unit omitted.

Recorded folding stability dG unfold, per entry:
ORDERED_RESIDUES: SAGGSAGGRIPLEDIEIVEVSEETLPNTEKVYHVLVKLPEGYIEATFLPNTGLEEAVERLLALESAGGSAGG [r6_232_TrMRF]
ENDPOINT_LABEL: folding stability dG unfold
TEST_VALUE: 0.788
//
ORDERED_RESIDUES: SAGGSAGGSAGGMPPATTVVEKPETSLTLEKTPTTVTIHDKATGKTSTVPAAEVDPALLSAGGSAGGSAGGS [r10_512_JUSTAS]
ENDPOINT_LABEL: folding stability dG unfold
TEST_VALUE: 0.138
//
ORDERED_RESIDUES: SAGGSAGGSAGGSGPSVVLVSLPDGSYIAFPSGADVNIEIPSSSSGARIVAVIPLSELSSAGGSAGGSAGGS [r4_122_TrMRF]
ENDPOINT_LABEL: folding stability dG unfold
TEST_VALUE: 0.518
//
ORDERED_RESIDUES: SAGGSAKTIKIWIPVKGMTPEMLEEIARDILEELGMKVDIEPHPGDGYIEVTFKLPGKDIEIIIPWSAGGSA [r15_168_TrROS]
ENDPOINT_LABEL: folding stability dG unfold
TEST_VALUE: 2.61

Can you share its folding stability dG unfold? I mean this sequence: SAGGSIEELAEELARRFAEENGAAEVRVEVEGLPDNTVLVRVYVRGPDGELLGVVDALIPVPEDELSAGGSA [r2_153_TrMRF]
2.05

###

TEST_DETAILS: folding stability dG unfold from chymotrypsin proteolysis; higher = more stable
So basically every entry gets a class from its folding stability dG unfold, ranges being c1 (below 1 kcal/mol), c2 (1 kcal/mol to below 3 kcal/mol), c3 (3 kcal/mol or more)

Which band does SAGGMEVKEISIPVPENLTPEQAVEKVKELFEKHPELEHVLVYFELPNGKPLVVEVDKNGKITKVEEKSAGG [r13_690_TrMRF] fall in?
c2

Bin? SAGGPEELELTLSIDYPDLTPEQAAEEARRLLEGLGFEVKEIPVTVEPGPGKVTVRARVTVLPPEERSAGGS [r16_287_TrMRF]
c2

Just checking, what class would you give SAGGPKVIVTDPNGVKHEFENLSIPELLSSLPKNGTPILKIEIPLFNPELGGEEPLELEFIFPPELFSAGGS [r16_806_TrMRF] here?
c1

Where would SAGGSAGGSGMKITSISKLPDGSYLVTTQDPGKGTPTTVPFSTPEEGKKLKKELEEKGGKVELSAGGSAGGS [r20_177_JUSTAS] land among the classes by reported folding stability dG unfold?
c1

Place this sequence in its band: SAGGSAGGSAGGPIVLKFKTKEEAEEFAKKLKKEIPNIKEVKIEEDPETGEYYLVVVNDSAGGSAGGSAGGS [r10_544_TrMRF]
c3

Note: place this sequence into its band. Item: SAGALEETTLPLPRPESLPDVSPEVLAALILALLSAVGVTVEVLSSDPANPVTAMVATRDGRVVLRALASAG [r5_80_JUSTAS]
c2

Could you tell me which band EKYIVKIKITVRRKVETETLPDGSKKTRYETKTLEIEIEVSLEELKKLLEELNLPEDEITSVEIEVYPEEES [r1_351_TrROS_Hall] belongs to?
c3

Entry SAGGSAGGSAGSGTMFDFGSASVETLEEDPNGRVLVKVTLPDSEYLLEIVKGELVKIEPRSAGGSAGGSAGG [r17_396_JUSTAS] belongs to which category?
c1

Which category fits this record: SAMPIESVEFHPEEGVITLRFRAPAHPDAEKFEIEVVVDGAEAGEIEVEVDPETNEVRALVRVKIPKGASAG [r14_244_TrMRF]
c3

State the class of the sequence shown: SAGGPGYNINIDVKIYPDPNDNHFVIEVKITIMPMEPDPDDGGWKQRSRTVPQEILLPPGESAEDIFSAGGS [r8_323_TrROS]
c2

Looking at SAGGSAGGTREIELPGMKISVQKDPNQGKKKIEVEFPNGEEFTMDPGKPPDDLPPPFRRALKEISAGGSAGG [r6_749_TrROS] , which class would you pick?
c1

Assign a category based on measured folding stability dG unfold for SAGGSAPIRIIKDPEKGTIMIRVPGPITVNQELKLRDENGKPWEIKNVEVERVGGRLIITMKVEPASAGGSA [r15_838_TrROS] and give only the class name.
c2

###

TEST_DETAILS: folding stability dG unfold from trypsin proteolysis; higher = more stable
ENDPOINT_LABEL: folding stability dG unfold (kJ/mol)
Supply the numeric figure in kJ/mol, leaving out any unit text.

Example results:
ORDERED_RESIDUES: SAGGVKEIEIPNGMRITDVDPPDGYWKIKIENPDNGKEVERPIPPGDKLKIPPNAPVTITEIEPYPPSAGGS [r16_123_TrROS]
TEST_VALUE: -2.56

ORDERED_RESIDUES: SAGGRVRLEERVLPDGRRVLVVHLPDRPLEVVIPLEGLALPPDQPVLVRGEGGVRELPIGDLLPEALFSAGG [r13_97_TrMRF]
TEST_VALUE: 4.45

ORDERED_RESIDUES: SPAAELARRLFEELGLEAELVSVDPERRRVTFRVRHPDRAPLLLEVVYDPERPVFAIALNPETGRAVVPVSA [r9_1119_TrMRF]
TEST_VALUE: 7.51

What measured folding stability dG unfold goes with SAGGMIKIEVEKKDDKLIIRIEVDGKKYEIEIPKDMTLEEALKKALEELKEKFPGKKIKIKKVEIFKPSAGG [r13_884_TrROS_Hall] ?
13.5
